- Assayed Target: T1, human SLC34A2 (human, UniProt O95436 1-690)
- T1 construct: whole, on cells; also called human solute carrier 34 A2; NaPi2b
- T1 sequence (looked up): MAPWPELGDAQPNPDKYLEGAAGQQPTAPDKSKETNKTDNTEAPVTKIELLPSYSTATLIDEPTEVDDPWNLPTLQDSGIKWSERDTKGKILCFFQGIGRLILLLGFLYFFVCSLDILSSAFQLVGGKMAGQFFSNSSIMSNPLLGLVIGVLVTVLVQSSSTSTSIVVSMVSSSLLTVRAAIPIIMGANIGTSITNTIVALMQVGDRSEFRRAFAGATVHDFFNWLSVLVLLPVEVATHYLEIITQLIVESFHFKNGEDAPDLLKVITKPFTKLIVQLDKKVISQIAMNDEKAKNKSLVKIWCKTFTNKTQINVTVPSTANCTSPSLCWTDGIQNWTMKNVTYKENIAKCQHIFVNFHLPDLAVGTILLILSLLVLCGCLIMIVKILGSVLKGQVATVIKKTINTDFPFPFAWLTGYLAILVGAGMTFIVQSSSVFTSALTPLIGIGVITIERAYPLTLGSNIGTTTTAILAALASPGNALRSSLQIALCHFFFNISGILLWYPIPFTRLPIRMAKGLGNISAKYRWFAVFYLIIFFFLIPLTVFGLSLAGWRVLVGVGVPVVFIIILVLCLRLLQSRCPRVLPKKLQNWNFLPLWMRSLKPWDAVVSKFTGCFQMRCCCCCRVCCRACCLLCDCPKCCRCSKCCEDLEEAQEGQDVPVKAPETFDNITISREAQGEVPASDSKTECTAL
- Test Method Notes: FACS, OVCAR3 cells
Measurement Label: pEC50
// pEC50: -log10(molar conc.)

Req: Could you share which pEC50 value was measured for 62G10E4G8.p3.z2 hIgG1 (antibody, V domains shown, humanized hIgG1) VH: QVQLVQSGAEVKKPGASVKVSCKASGYTFPSYITHWVRQAPGQGLEWMGAIYPGNADTSYIQKFKGRVTMTRDTSTSTVYMELSSLRSEDTAVYYCARGTYGTSAWFTYWGQGTLVTVSS VL: EIVMTQSPATLSVSPGERATLSCRARQNIGNNLYWYQQKPGQSPRLLIKYASQSISGIPARFSGSGSGTEFTLTISSLQSEDFAVYFCQQSFSWPLTFGQGTKLEIK ?
Resp: 7.48

Req: Could you share which pEC50 value was measured for 30H9B8F9.p1.z16 hIgG1 (antibody, V domains shown, humanized hIgG1) VH: QVQLVQSGAEVVKPGASVKMSCKTSGYTFTTNNMHWVKQAPGQGLEWIGAIYPGSGATAYNQKFKGRATLTADKSTSTAYMELSSLRSEATAVYYCARGMYGHGAMDYWGQGTSVTVSS VL: DIVMTQSPSFLSASVGDRVTITCKASQDVGTAVAWYQQKPGKSPKLLIYWATTRHSGVPDRFTGSGSGTDFIFTISSVQPEDFATYFCQQYSSNPLTFGAGTKLEIK ?
Resp: 8.85

Req: Could you share which pEC50 value was measured for 30H9B8F9.p1.z15 hIgG1 (antibody, V domains shown, humanized hIgG1) VH: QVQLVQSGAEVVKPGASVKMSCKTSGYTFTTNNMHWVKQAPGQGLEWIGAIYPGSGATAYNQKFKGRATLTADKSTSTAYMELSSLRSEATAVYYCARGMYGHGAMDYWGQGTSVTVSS VL: DIQMTQSPSFLSASVGDRVTITCKASQDVGTAVAWYQQKPGKSPKLLIYWATTRHSGVPDRFSGSGSGTEFIFTISSVQPEDFATYFCQQYSSNPLTFGAGTKLEIK ?
Resp: 8.98

Req: Could you share which pEC50 value was measured for 30H9B8F9.p1.z6 hIgG1 (antibody, V domains shown, humanized hIgG1) VH: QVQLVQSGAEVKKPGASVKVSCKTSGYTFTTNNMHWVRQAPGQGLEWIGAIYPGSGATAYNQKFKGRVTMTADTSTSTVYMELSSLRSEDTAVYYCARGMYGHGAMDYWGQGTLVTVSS VL: DIQLTQSPSFLSASVGDRVTITCKASQDVGTAVAWYQQKPGKSPKLLIYWATTRHSGVPDRFSGSGSGTEFTFTISSLQPEDFATYFCQQYSSNPLTFGQGTKLEIK ?
Resp: 8.79

Req: Could you share which pEC50 value was measured for 30H9B8F9.p1.z7 hIgG1 (antibody, V domains shown, humanized hIgG1) VH: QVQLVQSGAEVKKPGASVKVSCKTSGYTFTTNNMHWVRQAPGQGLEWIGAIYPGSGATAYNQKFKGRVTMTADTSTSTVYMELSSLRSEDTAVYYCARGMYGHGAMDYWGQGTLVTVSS VL: DIQMTQSPSFLSASVGDRVTITCKASQDVGTAVAWYQQKPGKSPKLLIYWATTRHSGVPDRFSGSGSGTEFIFTISSVQPEDFATYFCQQYSSNPLTFGAGTKLEIK ?
Resp: 8.77
